So I've got a bunch of compounds here, and I need their AC26 values.
- Tested on: D54 ERlucT glycosylation luciferase reporter, luminescence, 24 h
- measurement-protocol: N-linked glycosylation inhibitors, luciferase reporter, dose response, D54 ERlucT cells, luminescence, cherry-picks (AID 624491);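 note: signal gain reflects blocked N-linked glycosylation of a luciferase reporter; actives raise luciferase signal so AC26 marks activators of the reporter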

Example compounds with recorded AC26:
CN(C)Cc1c(C(=O)N/N=C/c2ccccc2OCc2c(F)cccc2Cl)nnn1-c1nonc1N | 4210 nM
CCOc1cc(-c2cc(-c3ccccc3)nc(N)c2C#N)ccc1O | 2480 nM
O=c1[nH]c(CSc2ncnc3sc(-c4ccccc4)cc23)nc2ccccc12 | 4470 nM

Items follow; give AC26 for each.
1. COc1ccc2nc(C)cc(Nc3ccc(N4CCN(C)CC4)cc3)c2c1
2. COc1ccc(C(=O)NCc2nnc(SCC(=O)NO)n2Cc2ccccc2)cc1

Reply:
1: 694 nM; 2: 4440 nM

Hi there! I need AC26 for each item below, if you can.
1. CCN(CC)CCN1C(=O)c2cccc3cc(N)cc(c23)C1=O
2. Cc1cccn2c(=O)c3cc(C(=O)NC4CCCC4)n(C)c3nc12
3. COc1ccc(NC2=C(C)C(=O)CC2)cc1
4. Cc1cc(NC(=O)NC(=O)c2ccccc2NC(=O)CN)ccc1Oc1ncc(Br)cn1
5. CCn1c2ccccc2c2cc(NC(=O)COC(=O)Cc3cn4ccsc4n3)ccc21
6. CC(=O)Nc1cccc(-c2ccnc3c2CC(C(=O)NCCc2ccccc2)O3)c1 (stereo unspecified)

Reply:
1140 nM
15100 nM
2940 nM
11000 nM
1790 nM
1910 nM

Below are 2 compounds. Give each one its AC26.
1. NS(=O)(=O)c1cc(C(=O)NCCOc2ccccc2)c(Cl)cc1Cl
2. Cc1cc(C)c2nc3nc(C)c(C)cc3c(N)c2c1

Reply:
1. 5620 nM
2. 998 nM

Please give AC26, item by item, for the list that follows.
1. COC(=O)c1cn(C(=O)c2ccc(OC)cc2)c2ccccc12
2. CCc1ccc(C(=O)Nc2ccc3c(c2)n(C)c(=O)n3C)cc1
3. COc1ccc(/C=N/NC(=O)c2cccc(NC(=O)c3ccccc3Cl)c2)cc1
4. C[C@@]12C(=O)Nc3cc(F)c(F)cc3C(=O)N1[C@H]1c3ccccc3OC[C@@H]1[C@@H]2c1ccccc1
5. O=C(Nc1ccc2oc(-c3cccnc3)nc2c1)c1ccc([N+](=O)[O-])o1
6. COc1ccc2c(c1)[C@H]1[C@H](CO2)[C@H](c2ccccc2)[C@]2(C)C(=O)Nc3ccc(Br)cc3C(=O)N12
7. CNC(=O)c1cccc(NC(=O)c2ccccc2OCc2ccccc2)c1
8. CC(=O)Nc1cccc(-c2ccnc3c2CC(C)(C(=O)NCCC(F)(F)F)O3)c1 (stereo unspecified)

Reply:
["730 nM", "6220 nM", "5130 nM", "784 nM", "1130 nM", "188 nM", "355 nM", "4320 nM"]

###

- Test system: D54 ERlucT glycosylation luciferase reporter, luminescence, 24 h
- measurement-protocol: N-linked glycosylation inhibitors, luciferase reporter, dose response, D54 ERlucT cells, luminescence, cherry-picks (AID 624491);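 note: signal gain reflects blocked N-linked glycosylation of a luciferase reporter; actives raise luciferase signal so AC26 marks activators of the reporter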
Kindly state AC26 for each of the entries shown.

Nc1cccc2c1C(=O)N(C(=O)/C=C/c1ccc(F)cc1)C2=O | 6.79 µM

Kindly give each listed record's AC26.
1. O=C(/C=C/Sc1ccc(C(F)(F)F)cn1)c1ccccc1
2. CC(NC(=O)c1cccc2ccccc12)c1ccc2c(c1)CCCC2 (stereo not given)

Reply:
1. 3.91 µM
2. 6.48 µM

Report AC26 for every entry below.
1. CCOC(=O)[C@H]1[C@H]2COc3ccc(Br)cc3[C@@H]2N2C(=O)c3cc(OC)c(OC)cc3NC(=O)[C@@]12C
2. CCCCn1c(SCc2c(C)noc2C)nc2cc(S(N)(=O)=O)ccc21

Reply:
4.04 µM
1.19 µM
